TARGET: T1, APBA1_2, Q02410
T1 sequence (Q02410 742-832, limits assumed, looked up): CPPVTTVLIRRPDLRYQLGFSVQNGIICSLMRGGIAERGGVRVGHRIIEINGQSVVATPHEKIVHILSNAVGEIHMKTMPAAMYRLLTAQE
EXPERIMENTAL DETAILS: holdup assay
Design: key: below the threshold = too weak to quantify, mostly under pKd 3.1 to 4
EXPERIMENTAL SETUP: plain residues with an end cap or a label only (N-terminal biotin on a linker: ttds)
READOUT NAME: pKd

Here are 5 binders together with their reported answers.
GARVSKETPL [MAPK12, P53778]
3.74
SRSRRRETAL [HPV33-E6, P06427]
below the threshold
SSIDLWETAL [SLC15A5, A6NIM6]
4.29
DLDEEEDTHL [PODXL, O00592]
below the threshold
PPRQRSETQV [HPV82-E6, Q9IR59]
below the threshold

In: In one line, give reported pKd of the entry SHSSKGETAV [FZD7, O75084] .
Out: 3.8

In: In one line, give reported pKd of the entry KQVVPFSSSV [GDA, Q9Y2T3] .
Out: below the threshold

Value source: paper PMC9482650
